UniProtKB P03952 measurements of pIC50, listed per entry.
pIC50: −log10 of the molar value.
readout.label: pIC50

                                   compound  result_number
0  Cn1cnc2c1CC[C@H]2NC(=O)c1cn(Cc2ccc(N3CC4C(C3)C4(F)F)nc2F)cn1 (stereo partly drawn) [Example 7]           8.85
1  Cc1nc(N2CC3CC3C2)ccc1Cn1cc(C(=O)N[C@@H]2CCc3c2ncn3C)c2cncnc21 (stereo partly drawn) [Example 173]           9.22
2  COc1nc(N2CC3C(C2)C3(F)F)ccc1Cn1cnc(C(=O)N[C@@H]2CCc3c2ncn3C)c1 (stereo partly drawn) [Example 97]           8.85

###

# target.under.test: PKK in kaolin activated human platelet poor plasma (Homo sapiens)
# Construct: Platelet poor plasma (PPP) obtained from human wholeblood
# Sequence (P03952 391-638 limits assumed): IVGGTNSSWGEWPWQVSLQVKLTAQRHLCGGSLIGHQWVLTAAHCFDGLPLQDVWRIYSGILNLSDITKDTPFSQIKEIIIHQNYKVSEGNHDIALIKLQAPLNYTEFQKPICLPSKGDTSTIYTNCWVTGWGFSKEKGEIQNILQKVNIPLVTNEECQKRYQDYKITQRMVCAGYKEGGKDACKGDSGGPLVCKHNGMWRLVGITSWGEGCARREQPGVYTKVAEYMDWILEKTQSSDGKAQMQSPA
# Sequence (P03952 20-390 limits assumed): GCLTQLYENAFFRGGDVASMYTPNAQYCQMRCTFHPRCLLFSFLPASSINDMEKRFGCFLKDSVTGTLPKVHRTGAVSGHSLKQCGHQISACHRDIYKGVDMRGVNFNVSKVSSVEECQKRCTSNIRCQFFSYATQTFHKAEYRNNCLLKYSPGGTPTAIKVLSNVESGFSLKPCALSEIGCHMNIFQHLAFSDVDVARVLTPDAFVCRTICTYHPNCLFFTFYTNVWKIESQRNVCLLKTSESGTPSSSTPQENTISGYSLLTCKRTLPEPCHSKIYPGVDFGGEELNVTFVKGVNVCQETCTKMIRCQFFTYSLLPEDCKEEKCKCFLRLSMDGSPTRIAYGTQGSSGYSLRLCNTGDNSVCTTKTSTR
# method.description: Inhibition of PKK in kaolin activated human PPP;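 also: readout is the rate of fluorogenic substrate cleavage in rfu per min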
# measurement.context: 25-750 μg/mL kaolin, global fit, text b200 calls the values IC90
# Method: Platelet poor plasma (PPP) obtained from human wholeblood, anticoagulated with Na-Citrate, is incubated with various concentrations of the test compound together with either 25, 75, 250, or 750 μg/mL kaolin in assay buffer for 20 min at 37° C. such that for each kaolin dose used a concentration response is obtained for the test compound.
pIC50: −log10 of the molar value.
pIC50 overview
readout.label: pIC50

                                    compound  readout_label  result_number
 0  Cc1nc(N2CC3(CC3)C2)ccc1Cn1cc(C(=O)N[C@@H]2CCc3c2ncn3C)nn1          pIC50           6.20
 1  Cc1nc(N2CC3C(C2)C3(F)F)ccc1Cn1cnc(C(=O)N[C@@H]2CCc3c2ncn3C)c1 (stereo partly drawn)          pIC50           6.74
 2  Cn1cnc2c1CC[C@H]2NC(=O)c1cn(Cc2ccc(N3CC4(CC4)C3)nc2Br)cn1          pIC50           6.55
 3  Cn1cnc2c1CC[C@H]2NC(=O)c1cc(Cc2ccc(N3CC4C(C3)C4(F)F)nc2C(F)F)no1 (stereo partly drawn)          pIC50           6.61
 4  Cn1cnc2c1CC[C@H]2NC(=O)c1cnn(Cc2ncc(N3CC4CC4C3)cn2)c1 (stereo partly drawn)          pIC50           5.03
 5  Cn1cnc2c1CC[C@H]2NC(=O)c1cn(Cc2ccc(N3CC4CC4C3)nc2Cl)cn1 (stereo partly drawn)          pIC50           6.31
 6  Cn1cnc2c1CC[C@H]2NC(=O)c1cn(Cc2ccc(N3CC4C(C3)C4(F)F)nc2CO)nn1 (stereo partly drawn)          pIC50           6.96
 7  Cn1cnc2c1CC[C@H]2NC(=O)c1cnn(Cc2ccc(N3CC4C(C3)C4(F)F)nc2Cl)c1 (stereo partly drawn)          pIC50           6.35
 8  Cn1cnc2c1CC[C@H]2NC(=O)c1cn(Cc2ccc(N3CC4C(C3)C4(F)F)nc2F)cn1 (stereo partly drawn)          pIC50           6.82
 9  Cc1nc(N2CC3(CC3)C2)ccc1Cn1cnc(C(=O)N[C@@H]2CCc3c2ncn3C)c1          pIC50           6.33
10  CCc1nc(N2C[C@@H]3[C@H](C)[C@@H]3C2)ccc1Cn1cnc(C(=O)N[C@@H]2CCc3c2ncn3C)c1          pIC50           5.93
11  Cn1cnc2c1CC[C@H]2NC(=O)c1cnn(Cc2ccc(N3CC4C(C3)C4(F)F)nc2Br)c1 (stereo partly drawn)          pIC50           6.38

###

# target.under.test: PKK in kaolin activated human platelet poor plasma (Homo sapiens)
# Construct: Platelet poor plasma (PPP) obtained from human wholeblood
# method.description: Inhibition of PKK in kaolin activated human PPP;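 also: readout is the rate of fluorogenic substrate cleavage in rfu per min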
# measurement.context: 25-750 μg/mL kaolin, global fit, text b200 calls the values IC90
# Method: Platelet poor plasma (PPP) obtained from human wholeblood, anticoagulated with Na-Citrate, is incubated with various concentrations of the test compound together with either 25, 75, 250, or 750 μg/mL kaolin in assay buffer for 20 min at 37° C. such that for each kaolin dose used a concentration response is obtained for the test compound.
log10(IC50) overview
readout.label: log10(IC50) (log10 of the value in nM)

>>> print(df.to_string())
                                    compound  readout_label  result_number
 0  Cn1cnc2c1CC[C@H]2NC(=O)c1cn(Cc2ccc(N3CC4(CC4)C3)nc2C(F)F)cn1    log10(IC50)           2.24
 1  Cn1cnc2c1CC[C@H]2NC(=O)c1cnn(Cc2ccc(N3CC4(CC4)C3)nc2CO)c1    log10(IC50)           2.40
 2  Cc1nc(N2CC3CC3C2)ccc1Cn1cc(C(=O)N[C@@H]2CCc3c2ncn3C)c2cncnc21 (stereo partly shown)    log10(IC50)           2.86
 3  Cn1cnc2c1CC[C@H]2NC(=O)c1cnn(Cc2ccc(N3CC4CC4C3)nc2Br)c1 (stereo partly shown)    log10(IC50)           2.73
 4  COCc1nn(Cc2ccc(N3CC4C(C3)C4(F)F)nc2C)cc1C(=O)N[C@@H]1CCc2c1ncn2C (stereo partly shown)    log10(IC50)           2.83
 5  Cn1cnc2c1CC[C@H]2NC(=O)c1cc(Cc2ccc(N3CC4CC4C3)nc2)no1 (stereo partly shown)    log10(IC50)           3.06
 6  Cn1cnc2c1CC[C@H]2NC(=O)c1cn(Cc2ccc(N3CC4(CC4)C3)nc2Br)nn1    log10(IC50)           3.27
 7  Cn1cnc2c1CC[C@H]2NC(=O)c1cn(Cc2ccc(N3CC4CC4C3)c(C#N)c2F)cn1 (stereo partly shown)    log10(IC50)           2.11
 8  Cn1cnc2c1CC[C@H]2NC(=O)c1cn(Cc2ccc(N3CC4CC4C3)c(C#N)c2Cl)cn1 (stereo partly shown)    log10(IC50)           2.31
 9  Cn1cnc2c1CC[C@H]2NC(=O)c1cnn(Cc2ccc(N3CC4CC4C3)nc2CC#N)c1 (stereo partly shown)    log10(IC50)           2.07
10  Cc1nc(N2CC3CC3C2)ncc1Cn1cc(C(=O)N[C@@H]2CCc3c2ncn3C)cn1 (stereo partly shown)    log10(IC50)           3.07
11  Cn1cnc2c1CC[C@H]2NC(=O)c1cn(Cc2ccc(N3CC4CC4C3)nc2Br)nn1 (stereo partly shown)    log10(IC50)           3.08
12  Cn1cnc2c1CC[C@H]2NC(=O)c1cn(Cc2ccc(N3CC4C(C3)C4(F)F)cc2C#N)cn1 (stereo partly shown)    log10(IC50)           2.11
13  Cn1cnc2c1CC[C@H]2NC(=O)c1cn(Cc2ccc(N3CC4C(C3)C4(F)F)nc2)cn1 (stereo partly shown)    log10(IC50)           2.31
14  Cn1cnc2c1CC[C@H]2NC(=O)c1cc(Cc2ccc(N3CC4CC4C3)nc2CO)n[nH]1 (stereo partly shown)    log10(IC50)           2.72
15  Cn1cnc2c1CC[C@H]2NC(=O)c1cnn(Cc2ccc(N3CC4CC4C3)c(C#N)c2)c1 (stereo partly shown)    log10(IC50)           3.03
16  Cn1cnc2c1CC[C@H]2NC(=O)c1cnn(Cc2ccc(N3CC4CC4C3)c(C#N)n2)c1 (stereo partly shown)    log10(IC50)           2.41
17  Cc1nc(N2CC3C(C2)C3(F)F)ncc1Cn1cc(C(=O)N[C@@H]2CCc3c2ncn3C)nn1 (stereo partly shown)    log10(IC50)           2.93
18  Cn1cnc2c1CC[C@H]2NC(=O)c1cnn(Cc2ccc(N3CC4CC4C3)nc2F)c1 (stereo partly shown)    log10(IC50)           2.85
19  Cc1nc(N2CC3C(C2)C3(F)F)cnc1Cn1cc(C(=O)N[C@@H]2CCc3c2ncn3C)nn1 (stereo partly shown)    log10(IC50)           3.25
20  Cn1cnc2c1CC[C@H]2NC(=O)c1cnn(Cc2ccc(N3CC4(CC4)C3)nc2F)c1    log10(IC50)           2.90
21  Cn1cnc2c1CC[C@H]2NC(=O)c1c[nH]c(Cc2ccc(N3CC4C(C3)C4(F)F)nc2)c1 (stereo partly shown)    log10(IC50)           2.89

###

# target.under.test: PKK in kaolin activated human platelet poor plasma (Homo sapiens)
# Construct: Platelet poor plasma (PPP) obtained from human wholeblood
# method.description: Inhibition of PKK in kaolin activated human PPP;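 also: readout is the rate of fluorogenic substrate cleavage in rfu per min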
# measurement.context: 25-750 μg/mL kaolin, global fit, text b200 calls the values IC90
Classify: t when IC50 is strictly less than 300 nM; f when IC50 is not.

                                    compound  cat
 0  Cc1cc(N2CC3CC3C2)ncc1Cn1cnc(C(=O)N[C@@H]2CCc3c2ncn3C)c1 (some centres unmarked) [Example 106]    f
 1  Cn1cnc2c1CC[C@H]2NC(=O)c1cnn(Cc2cnc(N3CC4CC4C3)c(C#N)c2)c1 (some centres unmarked) [Example 114]    f
 2  Cc1nc(N2CC3CC3C2)ccc1Cn1cnc(C(=O)N[C@@H]2CCc3c2ncn3C)c1 (some centres unmarked) [Example 23]    t
 3  Cc1nc(N2CC3CC3C2)ccc1Cn1cc(C(=O)N[C@@H]2CCc3c2ncn3C)c(C(C)(C)O)n1 (some centres unmarked) [Example 125]    f
 4  CCn1nc(Cc2ccc(N3CC4CC4C3)nc2C)cc1C(=O)N[C@@H]1CCc2c1ncn2C (some centres unmarked) [Example 164]    f
 5  Cn1cnc2c1CC[C@H]2NC(=O)c1cn(Cc2ccc(N3CC4C(C3)C4(F)F)nc2Cl)cn1 (some centres unmarked) [Example 57]    t
 6  Cn1cnc2c1CC[C@H]2NC(=O)c1ccn(Cc2ccc(N3CC4C(C3)C4(F)F)nc2)c1 (some centres unmarked) [Example 140]    f
 7  Cn1cnc2c1CC[C@H]2NC(=O)c1cn(Cc2cnc(N3CC4CC4C3)nc2CO)cn1 (some centres unmarked) [Example 214]    f
 8  CCc1nc(N2CC3C(C2)C3(F)F)ccc1Cc1cc(C(=O)N[C@@H]2CCc3c2ncn3C)on1 (some centres unmarked) [Example 153]    t
 9  Cn1cnc2c1CC[C@H]2NC(=O)c1cnn(Cc2ccc(N3CC4C(C3)C4(F)F)nc2)c1 (some centres unmarked) [Example 80]    f
10  CCc1nc(N2CC3C(C2)C3(F)F)ccc1Cc1ccc(C(=O)N[C@@H]2CCc3c2ncn3C)o1 (some centres unmarked) [Example 186]    t
11  Cn1cnc2c1CC[C@H]2NC(=O)c1cnn(Cc2ccc(N3CC4CC4C3)nc2C#N)c1 (some centres unmarked) [Example 132]    f
12  Cc1nc(N2CC3C(C2)C3(F)F)ncc1Cn1cnc(C(=O)N[C@@H]2CCc3c2ncn3C)c1 (some centres unmarked) [Example 136]    f
13  Cn1cnc2c1CC[C@H]2NC(=O)c1cn(Cc2ccc(N3CC4C(C3)C4(F)F)nc2Cl)nn1 (some centres unmarked) [Example 1]    t
14  Cn1cnc2c1CC[C@H]2NC(=O)c1cn(Cc2ccc(N3CC4C(C3)C4(F)F)nc2F)nn1 (some centres unmarked) [Example 25]    t
15  CCc1nc(N2CC3CC3C2)ccc1Cc1cc(C(=O)N[C@@H]2CCc3c2ncn3C)n(C)n1 (some centres unmarked) [Example 166]    t
16  Cn1cnc2c1CC[C@H]2NC(=O)c1ccc(Cc2ccc(N3CC4C(C3)C4(F)F)nc2CO)s1 (some centres unmarked) [Example 185]    f
17  Cn1cnc2c1CC[C@H]2NC(=O)c1cc(Cc2ccc(N3CC4C(C3)C4(F)F)nc2Cl)no1 (some centres unmarked) [Example 150]    f
18  Cc1nc(N2CC3CC3C2)c(C#N)cc1Cn1cnc(C(=O)N[C@@H]2CCc3c2ncn3C)c1 (some centres unmarked) [Example 124]    f
19  Cn1cnc2c1CC[C@H]2NC(=O)c1cnn(Cc2ccc(N3CC4CC4C3)nc2C2(C#N)CC2)c1 (some centres unmarked) [Example 42]    t
20  Cn1cnc2c1CC[C@H]2NC(=O)c1cn(Cc2ccc(N3CC4C(C3)C4(F)F)nc2C(F)F)cn1 (some centres unmarked) [Example 45]    t
21  CCc1nc(N2CC3CC3C2)ccc1Cc1ncc(C(=O)N[C@@H]2CCc3c2ncn3C)o1 (some centres unmarked) [Example 158]    f
22  Cc1nc(N2CC3C(C2)C3(F)F)ccc1Cc1ncc(C(=O)N[C@@H]2CCc3c2ncn3C)s1 (some centres unmarked) [Example 188]    f
23  COCc1nc(N2CC3(CC3)C2)ccc1Cn1cc(C(=O)N[C@@H]2CCc3c2ncn3C)cn1 [Example 78]    f
24  Cn1cnc2c1CC[C@H]2NC(=O)c1cn(Cc2ccc(N3CC4(CC4)C3)nc2C(F)F)nn1 [Example 4]    t
